target: T1, rat DLL4 extracellular domain (rat, UniProt D3ZHH1 28-530); assay: SPR (Biacore)
T1 construct: extracellular domain; also called ratDLL4 ECD
T1 sequence (D3ZHH1 28-530): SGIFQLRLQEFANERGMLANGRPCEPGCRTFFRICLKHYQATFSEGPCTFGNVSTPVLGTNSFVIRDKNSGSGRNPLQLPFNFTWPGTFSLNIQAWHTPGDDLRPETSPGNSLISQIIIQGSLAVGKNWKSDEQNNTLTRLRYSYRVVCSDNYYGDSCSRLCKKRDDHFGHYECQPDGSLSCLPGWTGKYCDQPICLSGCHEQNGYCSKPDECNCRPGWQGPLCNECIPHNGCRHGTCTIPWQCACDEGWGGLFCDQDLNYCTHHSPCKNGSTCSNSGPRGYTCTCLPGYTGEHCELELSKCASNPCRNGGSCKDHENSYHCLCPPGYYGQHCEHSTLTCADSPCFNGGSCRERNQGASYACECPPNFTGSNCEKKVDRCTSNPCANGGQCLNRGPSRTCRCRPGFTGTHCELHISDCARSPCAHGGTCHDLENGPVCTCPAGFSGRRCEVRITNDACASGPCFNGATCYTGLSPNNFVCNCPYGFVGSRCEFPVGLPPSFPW
measured.endpoint: kon (M⁻¹ s⁻¹)
Hi! Could you send only the number? It should be in M⁻¹ s⁻¹, unit omitted.

**Query** Need kon, item h1A11.A6 (antibody, V domains shown, also called h1A11.A6 VH / h1A11VL.1) VH: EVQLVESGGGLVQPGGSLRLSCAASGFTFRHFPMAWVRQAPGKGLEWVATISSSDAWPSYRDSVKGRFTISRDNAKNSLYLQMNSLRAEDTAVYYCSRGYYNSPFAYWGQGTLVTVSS VL: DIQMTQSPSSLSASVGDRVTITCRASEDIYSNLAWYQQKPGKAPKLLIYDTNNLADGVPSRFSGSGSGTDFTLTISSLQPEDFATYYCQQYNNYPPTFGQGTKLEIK
**Result** 129000

**Query** # get_value(readout='kon', item= h1A11.G3 (antibody, V domains shown, also called h1A11.G3 VH / h1A11.E12 VL) VH: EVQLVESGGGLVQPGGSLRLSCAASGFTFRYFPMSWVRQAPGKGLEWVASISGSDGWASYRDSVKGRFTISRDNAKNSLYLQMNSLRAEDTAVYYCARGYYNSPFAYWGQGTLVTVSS VL: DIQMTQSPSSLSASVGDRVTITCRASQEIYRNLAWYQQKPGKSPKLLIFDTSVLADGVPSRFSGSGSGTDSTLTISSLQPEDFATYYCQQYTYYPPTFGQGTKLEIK )
**Result** 118000

**Query** Please give the measured kon for this binder: h1A11.F5 (antibody, V domains shown, also called h1A11.F5 VH / h1A11.E12 VL) VH: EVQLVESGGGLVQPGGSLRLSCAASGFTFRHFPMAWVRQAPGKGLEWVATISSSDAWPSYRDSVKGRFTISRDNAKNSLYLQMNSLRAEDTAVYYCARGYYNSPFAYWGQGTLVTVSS VL: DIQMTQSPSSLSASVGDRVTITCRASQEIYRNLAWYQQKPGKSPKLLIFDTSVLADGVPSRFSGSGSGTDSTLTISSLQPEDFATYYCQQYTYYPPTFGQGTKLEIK
**Result** 116000
